Every entry's value here was drawn from patent US20250171462A1.

Entries and their IC50 values follow.
Study Target: UniProt Q6SZW1
Protocol Summary: FL-SARM1 cellular lysate assay (NAD/NADH-Glo detection of remaining NAD+, NMN-activated)
Assay Conditions: Activity (μM) (IC50), 11 point curve
State the value, then name its unit.

Solved cases (6 shown):
Compound	IC50
Cc1ccc(NC(=O)C2C3CCC2(c2ccccn2)C3)cc1-c1ncc(F)cn1 (mixture of isomers) [Example 318]	1.5 µM
CC[C@H]1C[C@@H]1C(=O)Nc1ccc(C)c(-c2ccccn2)c1 (racemic) [Example 108]	1.1 µM
Cc1ccc(NC(=O)N2CCCC2c2ccn(C)n2)cc1-c1ccccn1 (racemic) [Example 88]	11 µM
Cc1ccc(NC(=O)CC2CCC2)cc1-c1cnccn1 [Example 166]	19 µM
Cc1ccc(NC(=O)[C@@H]2C[C@@H]3C[C@@H]3N2c2ncccn2)cc1-c1ncc(F)cn1 [Example 268]	33 µM
Cc1cc(F)c(NC(=O)N2[C@@H]3C[C@@H](C)C[C@H]2C3)cc1-c1cncnn1 [Example 221]	0.6 µM

Fill in: IC50 on UniProt Q6SZW1, entry Cc1cc(F)c(NC(=O)[C@@H]2CC2(F)F)cc1-c1ccccn1 (stereo in doubt) [Example 143]
1.8 µM

Fill in: IC50 on UniProt Q6SZW1, entry Cc1ccc(NC(=O)[C@H]2[C@@H]3CC[C@@H](C3)N2c2ncccn2)cc1-c1ncc(F)cn1 [Example 322]
13 µM

Fill in: IC50 on UniProt Q6SZW1, entry Cc1ccc(NC(=O)N2C3CC(C)CC2(C(C)O)C3)cc1-c1ncc(F)cn1 (single isomer, unassigned) [Example 194]
0.01 µM

Fill in: IC50 on UniProt Q6SZW1, entry Cc1ccc(NC(=O)[C@@H]2CC2(F)F)cc1-c1ccc(C#N)cn1 [Example 158]
37 µM

Fill in: IC50 on UniProt Q6SZW1, entry O=C(Nc1ccc(C2CC2)c(-c2ccc(F)cn2)c1)N1C2CCCC1C2 [Example 36]
1.1 µM

Fill in: IC50 on UniProt Q6SZW1, entry COc1cccc(-c2cc(NC(=O)[C@@H]3CC3(F)F)ccc2C)n1 [Example 153]
18 µM

###

Study Target: full-length SARM1 (FL-SARM1) (Homo sapiens, UniProt Q6SZW1)
Sequence (Q6SZW1 28-724): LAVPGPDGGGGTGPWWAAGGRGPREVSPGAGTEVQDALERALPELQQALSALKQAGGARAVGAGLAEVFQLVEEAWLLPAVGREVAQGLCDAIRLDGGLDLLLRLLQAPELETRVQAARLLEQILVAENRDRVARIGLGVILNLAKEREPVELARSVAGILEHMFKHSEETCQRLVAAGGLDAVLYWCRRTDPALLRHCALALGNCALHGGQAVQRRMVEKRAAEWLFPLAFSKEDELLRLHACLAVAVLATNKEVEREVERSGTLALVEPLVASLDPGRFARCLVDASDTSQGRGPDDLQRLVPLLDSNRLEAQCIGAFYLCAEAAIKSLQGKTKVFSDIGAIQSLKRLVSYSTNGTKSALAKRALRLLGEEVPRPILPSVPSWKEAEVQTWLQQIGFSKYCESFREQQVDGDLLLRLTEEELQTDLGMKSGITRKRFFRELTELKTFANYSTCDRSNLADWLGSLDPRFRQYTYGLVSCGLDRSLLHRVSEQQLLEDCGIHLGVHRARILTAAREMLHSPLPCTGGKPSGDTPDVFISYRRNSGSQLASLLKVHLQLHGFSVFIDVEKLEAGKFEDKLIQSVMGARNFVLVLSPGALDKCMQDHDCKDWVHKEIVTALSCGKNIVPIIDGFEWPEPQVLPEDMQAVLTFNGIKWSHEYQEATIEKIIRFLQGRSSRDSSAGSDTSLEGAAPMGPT
Protocol Summary: FL-SARM1 cellular lysate assay (NAD/NADH-Glo detection of remaining NAD+, NMN-activated)
Assay Conditions: Activity (μM) (IC50), 11 point curve
Entries and their log10 IC50 values follow.
Log10 applied to IC50; unit prior to transform: µM.

Solved cases (6 shown):
Compound	log10 IC50
Cc1ccc(NC(=O)C2CC23CCC3)cc1-c1cccnn1 (racemic)	0.38
Cc1cc(F)cnc1-c1cccc(NC(=O)N2C3CCCC2C3)c1	0.53
Cc1ccc(NC(=O)[C@@H]2[C@@H]3CC[C@H]2N(CC(F)(F)F)C3)cc1-c1ccccn1 (single isomer, unassigned) [Example 104]	0.41
Cc1ccc(NC(=O)[C@H]2C[C@@H](C(F)(F)F)CN2c2ncccn2)cc1-c1cccnn1	0.97
Cc1ccc(NC(=O)C2[C@@H]3CC[C@@]2(c2ccnn2C)C3)cc1-c1ncc(F)cn1 (single isomer, unassigned) [Example 204]	-0.30
Cc1ccc(NC(=O)[C@H]2CCCN2c2ccccn2)cc1-c1ncc(F)cn1	0.62

As a next step, examine the compound that follows.
Complete the entry with log10 IC50 for Cc1ccc(NC(=O)N2C3CCCCC2C3)cc1-c1ccccn1
-1.40
